target: PARP1 (Homo sapiens, UniProt P09874); assay: PARP1 in vitro enzyme activity inhibition (chemiluminescence assay); assay type: biochemical; settings: 5 nM of PARP1 solution, method of test example 1; read-out: PARP1 activity inhibition IC50
Sequence (P09874 whole entry, species assumed): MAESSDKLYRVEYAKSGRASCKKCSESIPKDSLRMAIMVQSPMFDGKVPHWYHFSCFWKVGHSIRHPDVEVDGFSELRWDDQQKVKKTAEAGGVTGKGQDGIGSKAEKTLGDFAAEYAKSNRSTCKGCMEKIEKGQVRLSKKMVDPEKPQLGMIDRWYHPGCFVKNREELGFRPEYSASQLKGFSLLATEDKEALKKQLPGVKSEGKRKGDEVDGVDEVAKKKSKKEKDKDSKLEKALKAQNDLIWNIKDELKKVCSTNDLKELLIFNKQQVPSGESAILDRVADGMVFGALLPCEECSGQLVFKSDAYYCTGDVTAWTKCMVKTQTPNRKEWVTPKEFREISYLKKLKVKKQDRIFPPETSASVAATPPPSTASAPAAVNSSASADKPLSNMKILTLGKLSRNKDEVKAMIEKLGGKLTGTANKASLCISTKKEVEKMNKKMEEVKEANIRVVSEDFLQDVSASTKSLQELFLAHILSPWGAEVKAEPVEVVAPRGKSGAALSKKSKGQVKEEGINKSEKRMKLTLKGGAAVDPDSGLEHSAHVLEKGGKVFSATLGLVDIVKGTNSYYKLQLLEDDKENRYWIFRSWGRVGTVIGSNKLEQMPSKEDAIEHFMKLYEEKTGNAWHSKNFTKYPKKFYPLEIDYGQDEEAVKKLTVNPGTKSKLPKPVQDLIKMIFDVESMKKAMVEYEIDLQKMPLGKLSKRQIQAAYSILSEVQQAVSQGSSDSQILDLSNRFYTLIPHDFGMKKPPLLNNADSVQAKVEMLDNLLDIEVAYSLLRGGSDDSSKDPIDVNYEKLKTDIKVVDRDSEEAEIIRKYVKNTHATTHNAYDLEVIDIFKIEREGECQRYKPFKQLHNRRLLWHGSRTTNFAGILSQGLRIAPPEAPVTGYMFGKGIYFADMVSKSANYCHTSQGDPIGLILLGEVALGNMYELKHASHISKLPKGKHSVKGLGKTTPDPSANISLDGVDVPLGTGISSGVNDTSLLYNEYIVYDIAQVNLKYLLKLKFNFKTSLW
pIC50: −log10 of the molar value.
Reported pIC50 values for a set of molecules
parameter: pIC50

molecule	result
COC1(C)CN(C(=O)[C@@H](CCCNC(=O)c2ccc(-c3ncc(C(F)(F)F)s3)cc2)Nc2cn[nH]c(=O)c2C(F)(F)F)C1	7.52 to 8.00
C[C@H]1CCN(C(=O)[C@@H](CCCNC(=O)c2ccc(-c3ncc(C(F)(F)F)s3)cc2)Nc2cn[nH]c(=O)c2C(F)(F)F)C1	8.00 to 8.52
O=C(NCCC[C@@H](Nc1cn[nH]c(=O)c1C(F)(F)F)C(=O)Nc1ccccn1)c1ccc(-c2ncc(C(F)(F)F)s2)cc1	8.00 to 8.52
N#CC1CCN(C(=O)[C@@H](CCCNC(=O)c2ccc(-c3ncc(C(F)(F)F)s3)cc2)Nc2cn[nH]c(=O)c2C(F)(F)F)CC1	8.00 to 8.52
O=C(NCCCC(Nc1cn[nH]c(=O)c1C(F)(F)F)C(=O)N1CC2(CCC2)C1)c1cnc(-c2ncc(C(F)(F)F)cn2)cn1 (centres unmarked)	7.00 to 7.52
O=C(NCCC[C@@H](Nc1cn[nH]c(=O)c1C(F)(F)F)C(=O)N1CC(Cl)C1)c1ccc(-c2ncc(C(F)(F)F)s2)cc1	8.00 to 8.52
CC1(F)CN(C(=O)[C@@H](CCCNC(=O)c2ccc(-c3ncc(C(F)(F)F)s3)cc2)Nc2cn[nH]c(=O)c2C(F)(F)F)C1	7.00 to 7.52
Cc1c(CCC(=O)Nc2ccc(-c3ncc(C(F)(F)F)cn3)cc2)c[nH]c(=O)c1C(F)(F)F	8.00 to 8.52
CC1CN(C(=O)[C@@H](CCCNC(=O)c2ccc(-c3ncc(C(F)(F)F)s3)cc2)Nc2cn[nH]c(=O)c2C(F)(F)F)C1	8.00 to 8.52
O=C(NCCc1n[nH]c(=O)c(C(F)(F)F)c1N1CC2(CCC2)C1)c1cnc(-c2ncc(C(F)(F)F)cn2)cn1	< 7.00
CO[C@H]1CCN(C(=O)[C@@H](CCCNC(=O)c2ccc(-c3ncc(C(F)(F)F)s3)cc2)Nc2cn[nH]c(=O)c2C(F)(F)F)C1	7.52 to 8.00
O=C(NCCCC(Nc1cn[nH]c(=O)c1C(F)(F)F)C(=O)N1CCCC1)c1cnc(-c2ncc(C(F)(F)F)cn2)cn1 (centres unmarked)	7.00 to 7.52
CC1(C#N)CN(C(=O)[C@@H](CCCNC(=O)c2ccc(-c3ncc(C(F)(F)F)s3)cc2)Nc2cn[nH]c(=O)c2C(F)(F)F)C1	7.52 to 8.00
C[C@@H]1COCCN1C(=O)[C@@H](CCCNC(=O)c1ccc(-c2ncc(C(F)(F)F)s2)cc1)Nc1cn[nH]c(=O)c1C(F)(F)F	7.00 to 7.52
O=C(CCc1c[nH]c(=O)c(C(F)(F)F)c1N1CC2(CCC2)C1)Nc1ccc(-c2ncc(C(F)(F)F)s2)cn1	< 7.00
CC1(C)CN(C(=O)C(CCCNC(=O)c2ccc(-c3ncc(C(F)(F)F)s3)cc2)Nc2cn[nH]c(=O)c2C(F)(F)F)C1 (centres unmarked)	7.00 to 7.52
N#C[C@@H]1CCN(C(=O)[C@@H](CCCNC(=O)c2ccc(-c3ncc(C(F)(F)F)s3)cc2)Nc2cn[nH]c(=O)c2C(F)(F)F)C1	7.52 to 8.00
CN(C(=O)[C@@H](CCCNC(=O)c1ccc(-c2ncc(C(F)(F)F)s2)cc1)Nc1cn[nH]c(=O)c1C(F)(F)F)C1CCC1	7.00 to 7.52
O=C(NCCCC(Nc1cn[nH]c(=O)c1C(F)(F)F)C(=O)NC1CCCOC1)c1ccc(-c2ncc(C(F)(F)F)s2)cc1 (centres unmarked)	8.00 to 8.52
O=C(NCCCC(Nc1cn[nH]c(=O)c1C(F)(F)F)C(=O)N1CCOCC1)c1cnc(-c2ncc(C(F)(F)F)cn2)cn1 (centres unmarked)	7.00 to 7.52
CCNC(=O)C(CCCNC(=O)c1ccc(-c2ncc(C(F)(F)F)s2)cc1)Nc1cn[nH]c(=O)c1C(F)(F)F (centres unmarked)	7.52 to 8.00
O=C(NCCCC(Nc1cn[nH]c(=O)c1C(F)(F)F)C(=O)N1CCCC1)c1ccc(-c2ncc(C(F)(F)F)s2)cc1 (centres unmarked)	7.52 to 8.00
CC(CCCNC(=O)c1cnc(-c2ncc(C(F)(F)F)cn2)cn1)Nc1cn[nH]c(=O)c1C(F)(F)F (centres unmarked)	7.00 to 7.52
CC(CCCNC(=O)c1ccc(-c2ncc(C(F)(F)F)s2)cc1)Nc1cn[nH]c(=O)c1C(F)(F)F (centres unmarked)	7.52 to 8.00
O=C(NCCCC(Nc1cn[nH]c(=O)c1C(F)(F)F)C(=O)N1CCCC1)c1ccc(-c2ncc(C(F)(F)F)cn2)cc1 (centres unmarked)	< 7.00
CN(C(=O)[C@@H](CCCNC(=O)c1ccc(-c2ncc(C(F)(F)F)s2)cc1)Nc1cn[nH]c(=O)c1C(F)(F)F)C1CC1	8.00 to 8.52
